Entries and their measured protein stability index follow.
B1: IRX6 (parent)
chain: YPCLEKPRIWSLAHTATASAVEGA

# Variants of: B1
# Procedure Details: protein stability index of a GFP-peptide fusion (GPS, HEK-293T) (PSI 1-6); higher = more stable;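 further: lentivirally expressed fusions sorted by FACS into six bins by GFP to DsRed ratio, PSI derived from sequencing read proportions per bin multiplied by bin number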
# Reported Conditions: c terminus: a fixed tail appended
Just the number, please, no unit attached.

Below, each entry is followed by its recorded protein stability index result.
Request the reported protein stability index associated with K6I 1.59

Request the reported protein stability index associated with S19D 1.83

Request the reported protein stability index associated with E5D 2.81

Request the reported protein stability index associated with W10Y 1.62

Next:
Request the reported protein stability index associated with L12Q 2.87

Request the reported protein stability index associated with C3R 2.76

Request the reported protein stability index associated with I9S 1.65

Request the reported protein stability index associated with R8N 3.06

Request the reported protein stability index associated with W10D 4.13

Request the reported protein stability index associated with L12I 2.81

Request the reported protein stability index associated with C3I 1.74

Request the reported protein stability index associated with G23F 2.97

Request the reported protein stability index associated with A18M 3.02

Request the reported protein stability index associated with P7V 1.89
